System: Caco-2
PROTOCOL_SUMMARY: cell viability relative to DMSO; higher = less toxic
CONDITION_SUMMARY: 72 h; 1000 nM
Quick reference for cell viability among some molecules

N#CC1(c2ccc(NC(=O)c3cccnc3NCc3ccncc3)cc2)CCCC1 [apatinib] = 101%

Now examine the next entry.
Lab note: CN(C)c1ccc(-c2nc3c(N4CCN(CC(=O)Nc5nccs5)CC4)c(Cl)cnc3[nH]2)cc1 gave cell viability of 94.7%

###

System: Calu-3
PROTOCOL_SUMMARY: cell viability relative to DMSO; higher = less toxic
CONDITION_SUMMARY: 72 h; 10 nM
Quick reference for cell viability among some molecules
Report only the number, with the unit % understood.

CC[C@@]1(O)C(=O)OCc2c1cc1n(c2=O)Cc2cc3c(CN(C)C)c(O)ccc3nc2-1 = 102
COc1ccnc2[nH]cc(C(=O)C(=O)N3CCN(C(=O)c4ccccc4)C[C@H]3C)c12 = 108
CCCCCCCCCCCCCCCC[N+](C)(C)Cc1ccccc1 = 105
CC(=O)N(C)c1cccc(-c2ccnc3c(C(=O)c4cccs4)cnn23)c1 = 98.2
CCCCCN(C)CCC(O)(P(=O)(O)O)P(=O)(O)O [ibandronate] = 111

Now examine the next entry.
Lab note: FC(F)(F)c1ccc(N2CCNCC2)nc1Cl gave cell viability of 105
